- system: Misshapen-like kinase 1 (Homo sapiens)
- measurementConditions: at 10 µM
Note to self: class = bucket of residual activity, per class A: < 50%; class B: ≥ 50% and < 80%; class C: ≥ 80%

Band for the recorded residual activity of Cn1c2ccccc2c2c3c(c4c5ccccc5n(CCC#N)c4c21)CNC3=O ?
class A

Then O=c1c(-c2ccc(F)cc2)c(-c2ccncc2)[nH]n1-c1ccc(Cl)cc1 ?
class B

Can you handle CN(C)S(=O)(=O)c1ccc2c(c1)/C(=C/c1cc3c([nH]1)CCCC3)C(=O)N2 next?
class C

Entry to check: COc1cc2nccc(Oc3ccc(NC(=O)Nc4cc(C)on4)c(Cl)c3)c2cc1OC
class A

Note, next up: c1ccc(-c2cnc(Nc3ccc(OCCN4CCCC4)cc3)s2)cc1
class A

Next compound up: COc1cc2nccc(Oc3ccc(NC(=S)NC(=O)c4ccccc4C)cc3)c2cc1OC
class B

Would you mind doing O=c1cc(N2CCOCC2)oc2c1ccc1ccccc12 as well?
class C

Now consider Fc1ccc(-c2nc3n(c2-c2ccncc2)CCS3)cc1 .
class B

Try Cn1sc(=O)n(Cc2ccccc2)c1=O next.
class C

Let us now turn to NC(=O)Nc1sc(-c2ccc(F)cc2)cc1C(N)=O
class A

Next up: Nc1ncnc2[nH]nc(Nc3ccc(F)cc3)c12
class A

Same question for COc1ccc2c(c1)c(C1=C(c3c[nH]c4ccccc34)C(=O)NC1=O)cn2CCCN(C)C please.
class B

Here is the next compound: O=C(c1cc2cc(O)ccc2[nH]1)c1cc2cc(O)ccc2[nH]1
class A

Quick one: CCOC(=O)c1c(C)[nH]c(/C=C2\C(=O)Nc3ccccc32)c1C
class B

Lookup Cc1cc(C)c(/C=C2\C(=O)Nc3ccccc32)[nH]1
class B

Continue with O=C1NC(=O)C(c2cn(CCCn3ccnc3)c3ccccc23)=C1Nc1ccccc1
class A

Thanks! And O=S(=O)(NCCNC/C=C/c1ccc(Br)cc1)c1cccc2cnccc12 ?
class B

Next compound: O=c1cc(N2CCNCC2)oc2c(-c3ccccc3)cccc12
class C

Consider next the compound N#C/C(=C\c1ccc(O)c(O)c1)C(=O)NCc1ccccc1 in the same way.
class C

Please give the result for COc1cc2ncnc(Nc3cccc(Cl)c3)c2cc1OC too.
class B

Next compound up: CC(C)(C)n1nc(Cc2cccc3ccccc23)c2c(N)ncnc21
class A

====

- system: Mitogen-activated protein kinase 1 (Homo sapiens) (UniProt P28482)
- Sequence (P28482 whole entry): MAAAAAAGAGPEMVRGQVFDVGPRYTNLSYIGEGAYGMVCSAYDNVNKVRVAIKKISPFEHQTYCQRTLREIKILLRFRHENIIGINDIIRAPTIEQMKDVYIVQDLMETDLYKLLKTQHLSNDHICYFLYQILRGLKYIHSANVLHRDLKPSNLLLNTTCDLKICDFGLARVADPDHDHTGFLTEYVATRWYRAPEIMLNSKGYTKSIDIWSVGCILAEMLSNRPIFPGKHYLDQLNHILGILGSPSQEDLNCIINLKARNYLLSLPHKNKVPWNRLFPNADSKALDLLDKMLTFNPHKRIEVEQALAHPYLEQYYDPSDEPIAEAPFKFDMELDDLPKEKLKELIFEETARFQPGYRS
- measurementConditions: at 1 µM
- Description: Millipore: Percentage of residual kinase activity of MAPK1 at 1uM relative to control. Control inhibitor: ERK Inhibitor II at 30.0uM. Buffer: 25 mM Tris pH 7.5, 0.02 mM EGTA
Give measured residual activity for each item. Keep answers brief.
State just the number; it will be interpreted in %.

What is its residual activity for Mitogen-activated protein kinase 1 (Homo sapiens) (UniProt P28482)? Entry: COc1ccc2c(c1)c(C1=C(c3c[nH]c4ccccc34)C(=O)NC1=O)cn2CCCN(C)C
114

Next molecule up: Nc1ncnc2[nH]nc(Nc3ccc(F)cc3)c12
101

Record: O=c1c(-c2ccc(F)cc2)c(-c2ccncc2)[nH]n1-c1ccc(Cl)cc1
122

Also need O=C(CCCc1ccc(-c2ccccc2F)cc1)Nc1ccc(O)cc1 , thanks.
106

COc1cc2nccc(Oc3ccc(NC(=S)NC(=O)c4ccccc4C)cc3)c2cc1OC ?
93

# iterate: CC(C)(C)n1nc(Cc2cccc3ccccc23)c2c(N)ncnc21
81

Then what about the molecule O=c1cc(N2CCOCC2)oc2c1ccc1ccccc12 ?
103

# repeat for COc1cc2nccc(Oc3ccc(NC(=O)Nc4cc(C)on4)c(Cl)c3)c2cc1OC
103

Now consider COc1cc2c(cc1OC)-c1n[nH]c(Nc3cccc(F)c3)c1C2 and answer again.
103

COc1ccc(CNC(=O)Nc2ncc([N+](=O)[O-])s2)cc1 ?
120

Try the molecule Cn1sc(=O)n(Cc2ccccc2)c1=O
95

Same again, this time with O=C1NC(=O)C(c2cn(CCCn3ccnc3)c3ccccc23)=C1Nc1ccccc1
104
